Where these numbers come from: patent US20040259865A1

subject.of.test: human adenosine A2b receptor (Homo sapiens, UniProt P29275)
Sequence (P29275 whole entry): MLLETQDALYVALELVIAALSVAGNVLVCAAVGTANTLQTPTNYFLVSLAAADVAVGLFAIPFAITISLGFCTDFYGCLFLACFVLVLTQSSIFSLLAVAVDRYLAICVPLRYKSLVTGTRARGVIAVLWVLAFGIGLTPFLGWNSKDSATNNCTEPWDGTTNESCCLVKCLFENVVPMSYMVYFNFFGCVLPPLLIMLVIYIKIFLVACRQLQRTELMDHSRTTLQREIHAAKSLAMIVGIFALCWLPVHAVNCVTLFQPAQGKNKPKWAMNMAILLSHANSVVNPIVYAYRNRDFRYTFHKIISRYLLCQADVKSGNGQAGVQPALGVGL
test.name: Inhibition of NECA-stimulated production of cAMP in adenosine A2b receptor-expressing cells
measurement.name: pIC50
In plain terms, pIC50 is the concentration in mol/L turned into minus its base-10 logarithm.

Ask: Any idea what its pIC50 is? The molecule is Nc1ncc(-c2ccncc2)c(-c2ccco2)n1
Result: 8.08

* * *

subject.of.test: human adenosine A1 receptor (Homo sapiens)
Sequence (P30542 1-326): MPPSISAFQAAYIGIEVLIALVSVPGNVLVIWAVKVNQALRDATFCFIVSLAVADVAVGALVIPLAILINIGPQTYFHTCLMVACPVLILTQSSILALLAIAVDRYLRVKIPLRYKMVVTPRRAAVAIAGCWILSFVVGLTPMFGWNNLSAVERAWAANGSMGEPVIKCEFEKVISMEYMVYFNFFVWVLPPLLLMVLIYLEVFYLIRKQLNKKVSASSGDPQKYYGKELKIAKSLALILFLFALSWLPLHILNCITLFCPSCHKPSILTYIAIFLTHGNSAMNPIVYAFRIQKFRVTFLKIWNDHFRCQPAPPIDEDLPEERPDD
measurement.name: Ki (µM)
Give the value in µM but do not write µM after it.

molecule="Nc1ncc(-c2ccncc2)c(-c2ccco2)n1 [Compound I]" endpoint_value=0.66

Ask: Any idea what its Ki is? The molecule is CCn1c(=O)c2c(nc(/C=C/c3ccc(OC)c(OC)c3)n2C)n(CC)c1=O [KW 6002]
Result: 22.6
